- experimental_system: recombinant homotrimeric HA A/Netherlands/219/03 H7N7 (Influenza A virus A/Netherlands/219/03(H7N7))
- protocol: protein microarray, purified IgG, trimeric HA
- test_context: remark: other sources report otherwise
measurement_name: Trimeric HA Binding: RLU (RLU)
Numbers only; they are read as RLU.

Ask | Item TCN-538 (3206_O17) (antibody, V domains shown) VH: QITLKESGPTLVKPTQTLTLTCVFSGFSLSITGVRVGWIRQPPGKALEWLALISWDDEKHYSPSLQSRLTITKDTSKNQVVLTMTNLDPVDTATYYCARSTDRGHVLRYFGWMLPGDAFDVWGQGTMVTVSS VL: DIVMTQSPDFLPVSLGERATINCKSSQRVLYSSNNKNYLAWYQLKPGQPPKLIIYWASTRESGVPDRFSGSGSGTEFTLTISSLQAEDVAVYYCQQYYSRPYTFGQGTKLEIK : provide Trimeric HA Binding: RLU
Reply | 446

Others:
Ask | Item TCN-536 (5095_N01) (antibody, V domains shown) VH: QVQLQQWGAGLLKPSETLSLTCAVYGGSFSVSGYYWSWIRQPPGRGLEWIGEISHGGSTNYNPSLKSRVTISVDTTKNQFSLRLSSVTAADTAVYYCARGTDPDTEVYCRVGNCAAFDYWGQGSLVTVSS VL: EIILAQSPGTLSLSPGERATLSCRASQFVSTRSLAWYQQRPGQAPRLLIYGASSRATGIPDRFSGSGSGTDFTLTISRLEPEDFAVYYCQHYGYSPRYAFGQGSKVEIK : provide Trimeric HA Binding: RLU
Reply | 186

Ask | Item TCN-552 (5249_I23) (antibody, V domains shown) VH: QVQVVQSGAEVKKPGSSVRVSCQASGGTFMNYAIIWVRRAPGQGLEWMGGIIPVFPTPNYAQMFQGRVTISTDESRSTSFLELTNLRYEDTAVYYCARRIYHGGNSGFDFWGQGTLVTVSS VL: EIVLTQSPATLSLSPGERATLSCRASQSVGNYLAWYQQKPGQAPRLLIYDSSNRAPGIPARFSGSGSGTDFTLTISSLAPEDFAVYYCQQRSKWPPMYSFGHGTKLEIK : provide Trimeric HA Binding: RLU
Reply | 470

Ask | Item TCN-535 (5246_P19) (antibody, V domains shown) VH: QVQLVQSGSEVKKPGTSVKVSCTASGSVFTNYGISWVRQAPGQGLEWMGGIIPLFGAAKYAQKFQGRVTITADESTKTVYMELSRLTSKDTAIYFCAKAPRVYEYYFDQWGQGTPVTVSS VL: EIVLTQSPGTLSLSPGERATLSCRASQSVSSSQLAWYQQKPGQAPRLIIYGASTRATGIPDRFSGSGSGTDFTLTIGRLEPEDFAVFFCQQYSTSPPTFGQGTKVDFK : provide Trimeric HA Binding: RLU
Reply | 339

Ask | Item TCN-544 (5082_A19) (antibody, V domains shown) VH: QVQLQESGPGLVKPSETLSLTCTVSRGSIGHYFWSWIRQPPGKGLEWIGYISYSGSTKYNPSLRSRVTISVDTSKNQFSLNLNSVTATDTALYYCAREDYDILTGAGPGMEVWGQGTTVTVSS VL: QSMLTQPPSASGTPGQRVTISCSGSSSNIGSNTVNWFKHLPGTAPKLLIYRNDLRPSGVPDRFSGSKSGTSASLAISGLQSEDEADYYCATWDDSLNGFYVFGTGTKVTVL : provide Trimeric HA Binding: RLU
Reply | 203

Ask | Item TCN-546 (5089_L08) (antibody, V domains shown) VH: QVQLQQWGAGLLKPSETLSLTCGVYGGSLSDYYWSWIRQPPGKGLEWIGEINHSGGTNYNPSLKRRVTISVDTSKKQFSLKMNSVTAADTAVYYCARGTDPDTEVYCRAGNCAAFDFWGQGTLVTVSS VL: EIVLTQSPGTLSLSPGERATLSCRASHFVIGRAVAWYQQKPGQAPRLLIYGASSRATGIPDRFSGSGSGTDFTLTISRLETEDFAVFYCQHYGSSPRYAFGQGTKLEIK : provide Trimeric HA Binding: RLU
Reply | 386
